Entry source: patent US20110135636A1

- target.entity: T1, recombinant human EGFR extracellular domain with 6xHis (human, UniProt P00533 25-645)
- T1 construct: In-house produced; also called 6xHis EGFR ECD; soluble human EGFR ECD; not shown: 6xHis tag
- measurement.notes: SPR competition, competitor Vectibix
value.type: % inhibition

{"columns": ["binder", "result"],
 "data": [
  ["antibody 1030 (antibody, human IgG1, kappa, V domains shown, Chimeric IgG1 kappa) VH: EVQLVESGGGLVKPGGSLKLSCAASGFTFSSYALSWVRQTPERRLEWVASISGVGSTYFPDSVKGRFTMSRDNARNILYLQMSSLRSEDTAMYYCARGSDGYFYAMDYWGQGTSVTVSS VL: DIVLTQSPASLAVSLGQRATISCRASKSVSTSGYSFMHWYQLKPGQPPKLLIYLASNLESGVPARFSGSGSGTDFTLNIHPVEEEDAATYYCQHSREFPLTFGGGTKLEIKR", "16%"],
  ["antibody 1344 (antibody, human IgG1, kappa, V domains shown, Chimeric IgG1 kappa) VH: QVQLKESGPGLVAPSQSLSITCTVSGFSLTIYGVHWVRQPPGKGLEWLGVIWAGGNTNYNSALMSRLSISKDNSKSQVFLKMNSLQTDDTAMYFCARGYGYNLDYWGQGTTLTVSS VL: DIQMTQTTSSLSASLGDRVTISCSASQGISNYLNWYQQKPDGTVKLLIYYTSSLHSGVPSRFSGSGSGTDYSLTISNLEPEDIATYYCQQYSKLPYTFGGGTKLEIKR", "-5%"],
  ["antibody 1320 (antibody, human IgG1, kappa, V domains shown, Chimeric IgG1 kappa) VH: QVQLQQPGAELVKPGASMKLSCKASGYTFTNYWMHWVKQRPGQGLEWIGEINPSNGRTNYNEKFKSKATLTVDKSSSTAYMQLSSLTSEDSGVYYCAKGGNYYDYDWDYWGQGTTLTVSS VL: DIQMTQTTSSLSASLGDRVTISCSASQDISNYLNWYQQKPDGTVKLLIYHTSTLHSGVPSRFSGSGSGTDYSLTISNLEPEDIATYYCQQYSKLPWTFGGGTKLEIKR", "6%"]
]}
